target.of.assay: T1, human 2Ig-B7H3 (B7H3-2Ig-His) (human, UniProt Q5ZPR3 29-466)
T1 construct: Recombinant His-tagged protein immobilised on a CM5 chip; also called 21g-B7H3; B7H3-21g-His; not shown: His tag
T1 sequence: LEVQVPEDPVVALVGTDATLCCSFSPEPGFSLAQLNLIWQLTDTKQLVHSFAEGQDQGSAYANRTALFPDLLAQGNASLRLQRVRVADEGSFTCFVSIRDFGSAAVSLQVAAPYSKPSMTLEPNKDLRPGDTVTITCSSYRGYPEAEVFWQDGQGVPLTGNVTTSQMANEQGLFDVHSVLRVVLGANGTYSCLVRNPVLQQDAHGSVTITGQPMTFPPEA
experiment.description: SPR

>  <binder>
175Lu-DTPA-8H9-antibody (CAR6.1) (antibody, mouse IgG1, kappa, V domains shown, p-SCN-Bn-CHX-A″-DTPA conjugated (CAR 6.1 per antibody), labelled with cold lutetium-175; sites not stated) VH: QVQLQQSGAELVKPGASVKLSCKASGYTFTNYDINWVRQRPEQGLEWIGWIFPGDGSTQYNEKFKGKATLTTDTSSSTAYMQLSRLTSEDSAVYFCARQTTATWFAYWGQGTLVTVSA VL: DIVMTQSPATLSVTPGDRVSLSCRASQSISDYLHWYQQKSHESPRLLIKYASQSISGIPSRFSGSGSGSDFTLSINSVEPEDVGVYYCQNGHSFPLTFGAGTKLELKR

>  <t ½, h>
1.82

$$$$
